Overview of recorded apparent KD of MS2 coat protein for various sequences
- System: MS2 coat protein
- test-method-notes: apparent KD of MS2 coat protein; designed switch direction (-1 OFF switch, 1 ON switch): -1; higher = weaker reporter binding
- condition-context: Eterna round: R95; input ligand: FMN 200 uM
Record the value in nM, omitting the unit from your answer.

Consider the reported apparent KD of MS2 coat protein for these sequences:
{"columns": ["macromolecule-sequence", "scale-unit", "apparent KD of MS2 coat protein"],
 "data": [
  ["GGCAAUAUGUAGGAUAUCGUAAUGGAAACAUUACGAGAAGGGCAAACAUGAGGAUCACCCAUGUUCCUUAAGCC [Mat - Exclusion 6 - Eli Mod - D69] (puzzle: Exclusion 6)", "nM", 21.5],
  ["CAGUACUACAAGCUUGGGAACAUGAGGAUCACCCAUGUUCGUCUUAUUGAUCUAGGUACGCUGACGUACCUAGAUCU [JL-sv1-2.17 Brourd mod] (puzzle: Sensor v3, turn-off variant 1)", "nM", 16.5]
]}

Moving on to the next sequence.
Query: May I ask what apparent KD of MS2 coat protein has been recorded for UCAAGUAUGUAGGAUAUGAUGUGAUUGUACAUAUCAGAAGGACGUACAUGAGGAUCACCCAUGUAACUUGCAUG [Exclusion 6 - B - 12:b] (puzzle: Exclusion 6) ?
Result: 43.1
